meta.source: PubChem BioAssay (NCI)

Tested on: UACC-257 melanoma
Assay: NCI tumour cell line growth inhibition, 48 h

{"compound": "CCN(CC)C(=S)SS(=O)(=O)c1cccc(N)c1", "subjectOfTest": "UACC-257 melanoma", "unit": "µM", "measurementQualifier": ">", "TGI": 100}
{"compound": "C/C(=N\\NC(=S)N(C)C)c1cccnn1", "subjectOfTest": "UACC-257 melanoma", "unit": "µM", "measurementQualifier": "=", "TGI": 2.98}
{"compound": "Cc1cc(C)c2c(c1)C(=O)/C(=C/c1ccccc1C(=O)O)C2", "subjectOfTest": "UACC-257 melanoma", "unit": "µM", "measurementQualifier": ">", "TGI": 100}
{"compound": "C=C1CCC2(C#N)[C@H]3[C@H](CC[C@@H]2C)[C@@H](C)C[C@@H](CC(C)(C)NC(=O)CN2CCC2=O)[C@H]13 (stereo not given in full)", "subjectOfTest": "UACC-257 melanoma", "unit": "µM", "measurementQualifier": "=", "TGI": 26.7}
{"compound": "c1ccc(CN2CCC(Nc3ccccc3)(c3nnnn3Cc3ccccc3)CC2)cc1", "subjectOfTest": "UACC-257 melanoma", "unit": "µM", "measurementQualifier": "=", "TGI": 34.5}

* * *

System: A498 renal
Experiment: NCI tumour cell line growth inhibition, 48 h
Overview of reported TGI across a group of compounds:

{"compound": "CC1=NN(C(=O)c2ccc(Cl)cc2)C(=O)/C1=C/c1ccccc1O", "unit": "µM", "measurementQualifier": ">", "TGI": 100}
{"compound": "COc1ccc2cc(CNCCCCCCNCc3ccc4cc(OC)ccc4c3)ccc2c1", "unit": "µM", "measurementQualifier": "=", "TGI": 2.99}
{"compound": "CC(=O)NC1C(OCc2ccccc2)OC(CO)C(O)C1OC(C)C(=O)NC(C(=O)NC(CCC(=O)NCCCCNc1c2ccccc2nc2cccc([N+](=O)[O-])c12)C(N)=O)C(C)C (centres undefined)", "unit": "µM", "measurementQualifier": "=", "TGI": 4.74}
{"compound": "CCN(c1cc(-c2ccc(CN3CCOCC3)cc2)cc(C(=O)NCc2c(C)cc(C)[nH]c2=O)c1C)C1CCOCC1", "unit": "µM", "measurementQualifier": "=", "TGI": 37.2}
{"compound": "COc1ccc2[nH]c(O)c(/C=c3/cc4c(c(-c5ccc(F)c(OC)c5)n3)=Nc3ccccc3-4)c2c1", "unit": "µM", "measurementQualifier": "=", "TGI": 19.2}
{"compound": "O=C1CC(c2[nH]nc3ccccc23)C(=O)N1c1ccccc1 (centres undefined)", "unit": "µM", "measurementQualifier": ">", "TGI": 100}
{"compound": "CCc1cc2c(c3c1CCCC3=O)CC1(Cc3ccc(C(=O)OC)cc3C1)C2 (centres undefined)", "unit": "µM", "measurementQualifier": ">", "TGI": 100}
{"compound": "Cc1ccccc1-c1nc2c(C(=O)NCCN(C)C)cccc2[nH]1", "unit": "µM", "measurementQualifier": ">", "TGI": 100}
{"compound": "CC1(C)CC2(CC(C)(C)N1O)NC(=O)OC2=O", "unit": "µM", "measurementQualifier": ">", "TGI": 100}

* * *

Test system: A498 renal
Test: NCI tumour cell line growth inhibition, 48 h; in the data active = GI50 below about 0.43 µM; inactive = the rest
Outcomes: active, inactive

{"compound": "CC1=C2C(=CO[C@H](C)[C@H]2C)C(=O)C(C(=O)O)=C1O", "subjectOfTest": "A498 renal", "classLabel": "inactive"}
{"compound": "CC(C)(C)OC(=O)NCCCn1c2c(c3ccccc3c1=O)C(=O)c1ccccc1-2", "subjectOfTest": "A498 renal", "classLabel": "inactive"}
{"compound": "C1=C2CCCC3=Cc4ccccc4OC23Oc2ccccc21", "subjectOfTest": "A498 renal", "classLabel": "inactive"}
{"compound": "c1ccc(-c2nc(N3CCOCC3)c3c4c(sc3n2)CCCCCC4)nc1", "subjectOfTest": "A498 renal", "classLabel": "inactive"}
{"compound": "O=C([O][Sn]([O]C(=O)c1ccccn1)([c]1ccccc1)[c]1ccccc1)c1ccccn1", "subjectOfTest": "A498 renal", "classLabel": "inactive"}
{"compound": "COc1ccc(-c2nc(-c3nc4ccc(F)cc4[nH]3)c3ccccn23)cc1", "subjectOfTest": "A498 renal", "classLabel": "inactive"}
{"compound": "CCN(c1cc(-c2ccc(CN3CCOCC3)cc2)cc(C(=O)NCc2c(C)cc(C)[nH]c2=O)c1C)C1CCOCC1", "subjectOfTest": "A498 renal", "classLabel": "inactive"}
{"compound": "CCN=C1C=CC(=C(c2ccc(N(CC)CC)cc2)c2ccc(N(CC)CC)cc2)c2ccccc21", "subjectOfTest": "A498 renal", "classLabel": "active"}
{"compound": "Cc1ccc(S(=O)(=O)c2nc(-c3ccccc3)oc2S(C)=O)cc1 (stereo not drawn)", "subjectOfTest": "A498 renal", "classLabel": "inactive"}
{"compound": "C#Cc1nc2ccccc2c(=O)[nH]1", "subjectOfTest": "A498 renal", "classLabel": "inactive"}
{"compound": "COc1cnc2c(c1)C(=O)c1c-2n(CCCNCCO)c(=O)c2ccncc12", "subjectOfTest": "A498 renal", "classLabel": "inactive"}
{"compound": "Cc1nc2c(n1C)C(=O)c1ccccc1C2=O", "subjectOfTest": "A498 renal", "classLabel": "inactive"}
{"compound": "CCCCCC[C@H](C)Nc1nc2ccccc2c2occc12", "subjectOfTest": "A498 renal", "classLabel": "inactive"}
{"compound": "OCc1ccc(-c2cscc2-c2ccc(CO)o2)o1", "subjectOfTest": "A498 renal", "classLabel": "active"}
{"compound": "CCCCCCCCNCCC[C@@H](C)[C@H]1CC[C@H]2[C@@H]3[C@H](OCCCN)C[C@H]4C[C@H](OCCCN)CC[C@]4(C)[C@H]3C[C@H](OCCCN)[C@]12C", "subjectOfTest": "A498 renal", "classLabel": "inactive"}
{"compound": "S=c1nc(N/N=C/c2ccco2)c2cn[nH]c2[nH]1", "subjectOfTest": "A498 renal", "classLabel": "inactive"}
{"compound": "COc1ccc(C(O)c2cc3c(N)c(C(=O)Nc4cccc(Cl)c4)sc3nc2C)cc1 (stereo not drawn)", "subjectOfTest": "A498 renal", "classLabel": "inactive"}
{"compound": "O=C(c1ccccc1)c1c(NCC(O)CN2CCOCC2)n(Cc2ccccc2)c(=O)n(Cc2ccccc2)c1=O (stereo not drawn)", "subjectOfTest": "A498 renal", "classLabel": "inactive"}

* * *

System: MCF7 breast
Experiment: NCI tumour cell line growth inhibition, 48 h

{"compound": "O=c1cc(N/N=C/c2ccc(F)cc2)c2cc(Cl)ccc2[nH]1", "subjectOfTest": "MCF7 breast", "GI50": "15.3 µM"}
{"compound": "CCCCCC[C@H](C)Nc1nc2ccccc2c2occc12", "subjectOfTest": "MCF7 breast", "GI50": "> 100 µM"}
{"compound": "CN(C)c1nc2ccccc2c2c1c1c(n2Cc2ccccc2)-c2ccccc2C1=O", "subjectOfTest": "MCF7 breast", "GI50": "71.4 µM"}
{"compound": "OCc1ccc(-c2cscc2-c2ccc(CO)o2)o1", "subjectOfTest": "MCF7 breast", "GI50": "0.57 µM"}
{"compound": "C1CC[N-]CC1.CC(=N\\O)/C(C)=N/O.CC(=N\\O)/C(C)=N/O.OC1[CH-]CCCC1.[Co+2]", "subjectOfTest": "MCF7 breast", "GI50": "38.7 µM"}

* * *

The compounds listed here are annotated with their GI50.
Tested on: UACC-257 melanoma
Test: NCI tumour cell line growth inhibition, 48 h
metric: GI50

{"compound": "Cc1nn2c(/C=C3/C(=O)Nc4cc(Cl)ccc43)c(-c3ccccc3)nc2s1", "recordedValue": "2.65 µM"}
{"compound": "CSCCCNC(=O)c1ccc2c(c1)/C(=C/c1[nH]c(C)cc1C)C(=O)N2", "recordedValue": "4.67 µM"}
{"compound": "COc1ccc(C(=O)NNc2nc(Cl)nc(N3CCN(C(c4ccccc4)c4ccccc4)CC3)n2)cc1", "recordedValue": "2.84 µM"}
{"compound": "COc1ccc(-c2nc(-c3nc4ccc(F)cc4[nH]3)c3ccccn23)cc1", "recordedValue": "9.15 µM"}
{"compound": "Cc1nc2ccc(NC(=O)CCNC(=O)CCCc3ccc(CC(C(=O)O)C(=O)O)cc3)cc2s1", "recordedValue": "> 100 µM"}
{"compound": "S=c1nc(N/N=C/c2ccco2)c2cn[nH]c2[nH]1", "recordedValue": "> 100 µM"}
{"compound": "Cc1nc(Nc2cccnc2)sc1C(=O)/C=C/c1ccc(Cl)cc1", "recordedValue": "9.22 µM"}
{"compound": "C=CC(=O)Nc1cc(N2CCN(CC)CC2)ccc1Nc1cc(N(C)C(=O)Nc2c(Cl)c(OC)cc(OC)c2Cl)ncn1", "recordedValue": "13.5 µM"}
{"compound": "C1=C2CCCC3=Cc4ccccc4OC23Oc2ccccc21", "recordedValue": "5.49 µM"}
{"compound": "CC(C)(C)OC(=O)NCCCn1c2c(c3ccccc3c1=O)C(=O)c1ccccc1-2", "recordedValue": "75.4 µM"}
